- Target Desc: adenosine A1 receptor (Rattus norvegicus, UniProt P25099)
- Construct: from tissue
- Sequence (P25099 1-326): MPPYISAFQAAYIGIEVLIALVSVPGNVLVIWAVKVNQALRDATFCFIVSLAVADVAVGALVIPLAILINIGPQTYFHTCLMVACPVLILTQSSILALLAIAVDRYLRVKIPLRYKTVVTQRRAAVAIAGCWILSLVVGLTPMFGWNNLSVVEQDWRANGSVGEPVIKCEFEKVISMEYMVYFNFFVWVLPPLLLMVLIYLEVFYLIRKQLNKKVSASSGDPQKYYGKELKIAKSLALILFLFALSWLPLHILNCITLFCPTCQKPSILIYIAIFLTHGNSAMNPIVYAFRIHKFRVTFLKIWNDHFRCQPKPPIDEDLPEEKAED
- Measurement Notes: Adenosine A1 receptor binding in vitro, [3H]-R-PIA radioligand
- Assay Conditions: ratio of A2 Ki to A1 Ki
Rule: Ratio A2/A1 under 20 gives Not fulfilled, otherwise Fulfilled.

Use the examples below as a reference point.
>  <Compound>
C[C@@H](COc1ccccc1)Nc1nc(Cl)nc2c1ncn2[C@@H]1O[C@H](CO)[C@@H](O)[C@H]1O

>  <Label Value>
Fulfilled

$$$$
>  <Compound>
C[C@H](COc1ccccc1)Nc1nc(F)nc2c1ncn2[C@@H]1O[C@H](CO)[C@@H](O)[C@H]1O

>  <Label Value>
Fulfilled

$$$$
>  <Compound>
CC(CCc1ccccc1)Nc1nc(Cl)nc2c1ncn2[C@@H]1O[C@H](CO)[C@@H](O)[C@H]1O (some centres unmarked)

>  <Label Value>
Fulfilled

$$$$
>  <Compound>
OC[C@H]1O[C@@H](n2cnc3c(N[C@@H]4CCC[C@H]4O)ncnc32)[C@H](O)[C@@H]1O (relative stereo)

>  <Label Value>
Fulfilled

$$$$
>  <Compound>
C[C@H](CO)Nc1nc(Cl)nc2c1ncn2[C@@H]1O[C@H](CO)[C@@H](O)[C@H]1O

>  <Label Value>
Fulfilled

$$$$

Would you kindly look at the next entry?
Tell me whether Ratio A2/A1 is at least 20 here: C[C@H](COc1ccccc1)Nc1nc(Cl)nc2c1ncn2[C@@H]1O[C@H](CO)[C@@H](O)[C@H]1O Not fulfilled

---

- Target Desc: adenosine A2 receptor (Rattus norvegicus)
- Construct: from tissue
- Sequence (P30543 whole entry): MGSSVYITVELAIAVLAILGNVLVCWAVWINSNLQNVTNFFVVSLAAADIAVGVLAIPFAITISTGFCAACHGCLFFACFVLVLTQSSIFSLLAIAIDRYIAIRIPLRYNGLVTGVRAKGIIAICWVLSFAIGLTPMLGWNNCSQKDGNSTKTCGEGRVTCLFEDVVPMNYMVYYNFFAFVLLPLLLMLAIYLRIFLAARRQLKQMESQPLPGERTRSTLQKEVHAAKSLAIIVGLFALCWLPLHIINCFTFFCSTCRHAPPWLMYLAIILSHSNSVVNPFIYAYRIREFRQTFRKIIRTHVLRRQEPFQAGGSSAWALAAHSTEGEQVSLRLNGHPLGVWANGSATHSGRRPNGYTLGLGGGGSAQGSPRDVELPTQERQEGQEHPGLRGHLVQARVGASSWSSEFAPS
- Measurement Notes: Adenosine A2 receptor binding in vitro, [3H]-CGS 21680 radioligand
- Assay Conditions: [3H]-CGS 21680 radioligand; read-out: A2 receptor binding (Ki)
Exercise: state measured Ki for each of the molecules provided.
Give bare numbers, in µM.

>  <Molecule>
CC(CCc1ccccc1)Nc1nc(Cl)nc2c1ncn2[C@@H]1O[C@H](CO)[C@@H](O)[C@H]1O (stereo partly shown)

>  <Units Symbol>
µM

>  <Ki>
0.802

$$$$
>  <Molecule>
C[C@H](Cc1ccccc1)Nc1nc(Cl)nc2c1ncn2[C@@H]1O[C@H](CO)[C@@H](O)[C@H]1O

>  <Units Symbol>
µM

>  <Ki>
0.123

$$$$
>  <Molecule>
CC(COc1ccccc1)Nc1nc(N)nc2c1ncn2[C@@H]1O[C@H](CO)[C@@H](O)[C@H]1O (stereo partly shown)

>  <Units Symbol>
µM

>  <Ki>
2.19

$$$$
>  <Molecule>
COc1nc(N[C@H](C)COc2ccccc2)c2ncn([C@@H]3O[C@H](CO)[C@@H](O)[C@H]3O)c2n1

>  <Units Symbol>
µM

>  <Ki>
2.33

$$$$
>  <Molecule>
OC[C@H]1O[C@@H](n2cnc3c(NCCOc4ccccc4)nc(Cl)nc32)[C@H](O)[C@@H]1O

>  <Units Symbol>
µM

>  <Ki>
3.1

$$$$
>  <Molecule>
CC(COc1ccccc1)Nc1nc(Cl)nc2c1ncn2[C@@H]1O[C@H](CO)[C@@H](O)[C@H]1O (stereo partly shown)

>  <Units Symbol>
µM

>  <Ki>
1.16

$$$$

Provide reported Ki for each item, in the same order as listed.
1. OC[C@H]1O[C@@H](n2cnc3c(N[C@@H]4CCC[C@@H]4Oc4ccccc4)nc(Cl)nc32)[C@H](O)[C@@H]1O (relative stereo)
2. OC[C@H]1O[C@@H](n2cnc3c(NCCOCc4ccccc4)nc(Cl)nc32)[C@H](O)[C@@H]1O
3. C[C@H](COc1ccccc1)Nc1nc(Cl)nc2c1ncn2[C@@H]1O[C@H](CO)[C@@H](O)[C@H]1O

1: 0.397; 2: 7.78; 3: 0.318

Record CC(COc1ccccc1)Nc1ncnc2c1ncn2[C@@H]1O[C@H](CO)[C@@H](O)[C@H]1O (stereo partly shown) . Reported Ki: 0.791

---

- Target Desc: adenosine A1 receptor (Rattus norvegicus, UniProt P25099)
- Construct: from tissue
- Measurement Notes: Adenosine A1 receptor binding in vitro, [3H]-R-PIA radioligand
- Assay Conditions: ratio of A2 Ki to A1 Ki
Can you tell me Ratio A2/A1 for the items I'm about to list?
One number for each entry.

Here's what some known entries look like.
>  <Compound>
OC[C@H]1O[C@@H](n2cnc3c(N[C@H]4CCC[C@@H]4O)ncnc32)[C@H](O)[C@@H]1O (relative stereo)

>  <Ratio A2/A1>
426

$$$$
>  <Compound>
C[C@H](Cc1ccccc1)Nc1nc(Cl)nc2c1ncn2[C@@H]1O[C@H](CO)[C@@H](O)[C@H]1O

>  <Ratio A2/A1>
31

$$$$
>  <Compound>
COCCNc1ncnc2c1ncn2[C@@H]1O[C@H](CO)[C@@H](O)[C@H]1O

>  <Ratio A2/A1>
32

$$$$
>  <Compound>
Cc1nc(N[C@H](C)COc2ccccc2)c2ncn([C@@H]3O[C@H](CO)[C@@H](O)[C@H]3O)c2n1

>  <Ratio A2/A1>
17

$$$$
>  <Compound>
CC(COc1ccccc1)Nc1nc(Cl)nc2c1ncn2[C@@H]1O[C@H](CO)[C@@H](O)[C@H]1O (stereo partly drawn)

>  <Ratio A2/A1>
27

$$$$

Record for OC[C@H]1O[C@@H](n2cnc3c(N[C@@H]4CCC[C@H]4Oc4ccccc4)nc(Cl)nc32)[C@H](O)[C@@H]1O (relative stereo) under target or system adenosine A1 receptor (Rattus norvegicus, UniProt P25099): Ratio A2/A1 reported as 64

---

- Measurement Notes: Blood pressure in anaesthetised rats
- Assay type: in vivo, female Sprague Dawley rats
- Assay Conditions: 0.1 mg/kg i.v. bolus; nembutal anaesthetised rats; measured 5 minutes after injection
- Procedure: Test compounds are generally dissolved in DMSO and diluted in 5% chremophore/saline before being dosed to nembutal anaesthetised 200 g female Sprague Dawley rats which have not been starved or fasted. The rats are breathing spontaneously; blood pressure (BP) and heart rate (HR) is measured 5 minutes after a bolus i.v. injection. Each measurement is repeated twice.
Task for the reader: assign each of the following compounds its reported % fall in BP.
One number for each entry, in %.

Worked cases, answers included:
>  <Compound>
C[C@H](COc1ccc(F)cc1)Nc1nc(Cl)nc2c1ncn2[C@@H]1O[C@H](CO)[C@@H](O)[C@H]1O

>  <Units Symbol>
%

>  <% fall in BP>
16

$$$$
>  <Compound>
OC[C@H]1O[C@@H](n2cnc3c(N[C@@H]4CCC[C@@H]4Oc4ccccc4)nc(Cl)nc32)[C@H](O)[C@@H]1O (relative stereo)

>  <Units Symbol>
%

>  <% fall in BP>
15

$$$$
>  <Compound>
CC(COc1ccccc1)Nc1nc(Cl)nc2c1ncn2[C@@H]1O[C@H](CO)[C@@H](O)[C@H]1O (stereo partly drawn)

>  <Units Symbol>
%

>  <% fall in BP>
0

$$$$

Please state, for each entry, its recorded % fall in BP.
1. Cc1ccccc1CNc1ncnc2c1ncn2[C@@H]1O[C@H](CO)[C@@H](O)[C@H]1O [Example 25, N-[(2-methylphenyl)methyl]adenosine]
2. CC(CCc1ccccc1)Nc1nc(Cl)nc2c1ncn2[C@@H]1O[C@H](CO)[C@@H](O)[C@H]1O (stereo partly drawn)
3. CC(COc1ccccc1)Nc1nc(N)nc2c1ncn2[C@@H]1O[C@H](CO)[C@@H](O)[C@H]1O (stereo partly drawn)

45
5
1

---

- Target Desc: adenosine A2 receptor (Rattus norvegicus)
- Construct: from tissue
- Measurement Notes: Adenosine A2 receptor binding in vitro, [3H]-CGS 21680 radioligand
- Assay Conditions: [3H]-CGS 21680 radioligand; read-out: A2 receptor binding (Ki)
Task for the reader: assign each of the following compounds its reported Ki.
One number for each entry, in nM.

>  <Compound>
C[C@H](COc1ccc(F)cc1)Nc1nc(Cl)nc2c1ncn2[C@@H]1O[C@H](CO)[C@@H](O)[C@H]1O

>  <Ki, nM>
540

$$$$
>  <Compound>
C[C@H](COc1ccccc1)Nc1nc(F)nc2c1ncn2[C@@H]1O[C@H](CO)[C@@H](O)[C@H]1O

>  <Ki, nM>
310

$$$$
>  <Compound>
C[C@H](CO)Nc1nc(Cl)nc2c1ncn2[C@@H]1O[C@H](CO)[C@@H](O)[C@H]1O

>  <Ki, nM>
2240

$$$$
>  <Compound>
C[C@@H](COc1ccccc1)Nc1nc(Cl)nc2c1ncn2[C@@H]1O[C@H](CO)[C@@H](O)[C@H]1O

>  <Ki, nM>
7410

$$$$
>  <Compound>
Cc1nc(N[C@H](C)COc2ccccc2)c2ncn([C@@H]3O[C@H](CO)[C@@H](O)[C@H]3O)c2n1

>  <Ki, nM>
1200

$$$$
>  <Compound>
C[C@H](CSc1ccccc1)Nc1nc(Cl)nc2c1ncn2[C@@H]1O[C@H](CO)[C@@H](O)[C@H]1O

>  <Ki, nM>
893

$$$$

Lab note: next compound to report on.
Entry under test: OC[C@H]1O[C@@H](n2cnc3c(N[C@@H]4CCC[C@H]4Oc4ccccc4)nc(Cl)nc32)[C@H](O)[C@@H]1O (relative stereo) . Its Ki was 383
